test system: Plasmodium falciparum; assay: ST_JUDE: Plasmodium falciparum K1 EC50 (uM) as measured by SYBR green dye; assay type: functional, organism-based
QUANTITY: pEC50
Keep in mind that pEC50 stands for -log10 of concentration in molar terms.

>>> df
                                   compound            system_name  measured_number
0  Cc1ccc2nc(-c3ccc(C)c(NC(=O)C(Cl)(Cl)Cl)c3)oc2c1  Plasmodium falciparum             5.38
1           Cc1ccc(N2C(N)=NC(N)=NC2(C)C)cc1  Plasmodium falciparum             6.00
2  C=CCn1c(SCC(=O)Nc2ccccc2OC)nc2sc(C)cc2c1=O  Plasmodium falciparum             5.40
3       C=CC[n+]1c(C=C2C=CC=CN2C)sc2ccccc21  Plasmodium falciparum             6.06
4  CC(C)c1ccc(NC(=O)CSc2n[nH]c(-c3ccccc3Cl)n2)cc1  Plasmodium falciparum             5.30
5  CCOc1ccc(-c2nonc2NC(=O)c2ccccc2Cl)cc1OCC  Plasmodium falciparum             6.27
6  COc1ccc(NC(=O)COc2c(C)cc(Br)cc2C)c(OC)c1  Plasmodium falciparum             5.26
7  COc1ccc(S(=O)(=O)/N=C2/C=C(Sc3nc[nH]n3)C(=O)c3ccccc32)cc1  Plasmodium falciparum             5.63
8  CCn1nc(-c2ccc(C(F)(F)F)cc2)nc2c(=O)n(C)c(=O)nc1-2  Plasmodium falciparum             5.86
9  CCCOc1ccc(-c2nonc2NC(=O)c2cccc(OC)c2)cc1OCCC  Plasmodium falciparum             5.92

Q: Give the reported pEC50 for this compound. CC(C)(C)NC(=O)c1cn(C2CCCCC2)cc(C(=O)NC2CCN(Cc3ccccc3)C2)c1=O (stereo not drawn)
A: 5.39

Q: Give the reported pEC50 for this compound. "OCCNc1nc(Nc2ccc(Cl)cc2)nc2ccccc12"
A: 5.49

Q: Give the reported pEC50 for this compound. "O=C(N1CCCN(C(=O)C(Cl)(Cl)Cl)CC1)C(Cl)(Cl)Cl"
A: 5.65

Q: Give the reported pEC50 for this compound. "COc1ccc(C)cc1NC(=S)N1CCN(c2ccc([N+](=O)[O-])cc2)CC1"
A: 5.72

Q: Give the reported pEC50 for this compound. "CCN(CC)c1cc(C)c2cc(NC(=O)c3cccc(F)c3)ccc2n1"
A: 5.09

* * *

assay: ST_JUDE: Cytotoxicity using luciferase to measure ATP as an indicator of the viability of human foreskin fibroblast cells (BJ); type: toxicity, cell-based
Some compounds, each annotated with its measured EC50.

>>> print(df.to_string())
                                   compound  quantity     result
0  CCOc1ccc(/C=C2\Oc3c(ccc(O)c3CN3CCCCC3)C2=O)cc1      EC50  > 47.1 µM
1      Oc1ccc(Br)cc1CN1CCN(Cc2cccc(F)c2)CC1      EC50  > 31.8 µM

Q: Give the reported EC50 for this compound. "CCCn1c2c(c(=N)c3c1CCC3)CCCC2"
A: > 40.3 µM

Q: Give the reported EC50 for this compound. "O=[N+]([O-])c1ccc2c(c1)c1ccccc1n2Cc1ccccc1O"
A: > 35.3 µM

* * *

Some compounds, each annotated with its measured log10 EC50.
tested on: Plasmodium falciparum; assay: ST_JUDE: Plasmodium falciparum K1 EC50 (uM) as measured by SYBR green dye; assay type: functional, organism-based
// do not treat as linear: log10 of EC50, unit µM

Illustrative cases are given below, each with its answer.
In [3]: df
Out[3]:
                                   compound    quantity  measured_number
0  CCCO/C(O)=C1\C(C)=NC2=C(C(=O)CC(c3ccc(OC)cc3)C2)C1c1ccccc1Cl (stereo unspecified)  log10 EC50            -0.33
1  CCOc1ccc(CCNC(=O)Nc2cc(C(F)(F)F)cc(C(F)(F)F)c2)cc1OC  log10 EC50             0.75

Now examine the next entry.
Q: Give the reported log10 EC50 for this compound. COc1ccc(C2CC(=O)C3=C(C2)NC(=O)CC3c2ccc(SC)cc2)cc1OC (stereo unspecified)
A: 0.68

* * *

tested on: Plasmodium falciparum; experiment: ST_JUDE: Plasmodium falciparum 3D7 EC50 (uM) as measured by SYBR green dye; format: functional, organism-based
Some molecules, each annotated with its measured EC50.

In [3]: df
Out[3]:
                                   molecule            system_name  quantity   result
0  CCOc1ccc(C2c3cccn3CCN2C(=O)Nc2cccc(C)c2)cc1 (stereo not given)  Plasmodium falciparum      EC50  > 15 µM
1  CCCN(CCC)CCCNC(=O)c1cc2c(-c3cccc(OC)c3)nn(C)c2s1  Plasmodium falciparum      EC50  2.15 µM
2  COc1ccc(C)c2sc(N(Cc3cccnc3)C(=O)c3ccc(C#N)cc3)nc12  Plasmodium falciparum      EC50  > 15 µM
3  CCOc1ccc(NC2=C(NCCO)C(=O)c3ccccc3C2=O)cc1  Plasmodium falciparum      EC50  3.54 µM

Now examine the next entry.
Q: Give the reported EC50 for this molecule. "CC(=O)N1CCc2c(sc(NC(=O)c3ccc(C)c(C)c3)c2C(N)=O)C1"
A: > 15 µM

* * *

test system: Trypanosoma brucei; assay: ST_JUDE: Cytotoxicity using luciferase to measure ATP as an indicator of the viability of Trypanosoma brucei; assay type: functional, organism-based
Label scheme for EC50: c1 = under 2 µM, c2 = from 2 µM up to 5 µM, c3 = 5 µM and over

>>> print(df.to_string())
                                   compound  class
0  CCc1ccccc1NC(=O)C1c2ccccc2C(=O)N(CC(C)C)C1c1cccs1 (configuration not stated)     c3
1  Cc1ccc2c(c1)N(CCO)/C(=C/c1sc3ccccc3[n+]1C)S2     c3
2  COc1cc(C2CC(=O)NC3=C2C(=O)CC(c2ccccc2Cl)C3)cc(Br)c1O (configuration not stated)     c3
3  Nc1ccc(-c2nc3cc(-c4ccc5[nH]c(-c6ccc(N)cc6)nc5c4)ccc3[nH]2)cc1     c2
4  COc1ccccc1C1CC2=NC(C)=C(C(=O)OC(C)C)C(c3ccc(Cl)cc3)C2=C(O)C1 (configuration not stated)     c1
5  CCCO/C(O)=C1\C(C)=NC2=C(C(=O)CC(c3ccc(OC)cc3)C2)C1c1ccccc1F (configuration not stated)     c3
6  Cc1cccc(CN2CCC(CNC(=S)Nc3ccc4nc(N5CCN(C)CC5)cc(C)c4c3)CC2)c1     c2
7  CC[n+]1c(/C=C/c2ccc(N(C)C)cc2)ccc2cc(OC)ccc21     c1

Q: Could you place "C/C=C/c1n(C)c2ccccc2[n+]1C" in its proper category? Many thanks.
A: c3

Q: Could you place "O=C(Nc1cccc(Cl)c1N1CCOCC1)C(Cl)(Cl)Cl" in its proper category? Many thanks.
A: c3

Q: Could you place "CCCCCCCCCC[n+]1ccccc1" in its proper category? Many thanks.
A: c3

Q: Could you place CCOc1cc(C2CC(=O)NC3=C2C(=O)CC(c2ccccc2Cl)C3)cc(Cl)c1O (configuration not stated) in its proper category? Many thanks.
A: c3

Q: Could you place "Cc1ccc(NC(=O)c2c(I)cnn2C)cc1[N+](=O)[O-]" in its proper category? Many thanks.
A: c3

Q: Could you place CCCO/C(O)=C1\C(C)=NC2=C(C(=O)CC(c3ccc(OC)c(OC)c3)C2)C1c1cccc(C)c1 (configuration not stated) in its proper category? Many thanks.
A: c3

Q: Could you place CO/C(O)=C1\C(C)=NC2=C(C(=O)CC(c3ccc(OC)c(OC)c3)C2)C1c1ccc(F)cc1 (configuration not stated) in its proper category? Many thanks.
A: c3

Q: Could you place "Clc1ccc(Nc2nc(NCc3ccco3)c3ccccc3n2)cc1" in its proper category? Many thanks.
A: c3

Q: Could you place "CCN(CC)Cc1cc(Nc2ccnc3cc(Cl)ccc23)ccc1O" in its proper category? Many thanks.
A: c3

Q: Could you place "Cc1ccccc1/N=C1\C=C(NS(=O)(=O)c2ccc(F)cc2)c2ccccc2C1=O" in its proper category? Many thanks.
A: c1

Q: Could you place "CC(C)(C)c1ccc(S(=O)(=O)NC2=C/C(=N\c3ccc(O)cc3)C(=O)c3ccccc32)cc1" in its proper category? Many thanks.
A: c1

Q: Could you place "c1ccc(CCNc2ccnc3cc4ccccc4cc23)cc1" in its proper category? Many thanks.
A: c2

* * *

assay: ST_JUDE: Cytotoxicity using luciferase to measure ATP as an indicator of the viability of human epithelial embryonic kidney cells (HEK293); type: toxicity, cell-based
QUANTITY: EC50

Illustrative cases are given below, each with its answer.
                                   compound  quantity     result
0  Cc1ccc2c(c1)N(CCO)/C(=C/c1sc3ccccc3[n+]1C)S2      EC50  > 16.7 µM
1  O=S(=O)(c1ccc(Cl)cc1)N1CCN(C(=S)NCc2ccco2)CC1      EC50  > 30.1 µM
2                       CCCCCCCn1ccc(=N)cc1      EC50  > 51.4 µM

Q: Give the reported EC50 for this compound. Cc1ccc(C)c(NC(=O)CC2C(=O)N(c3ccccc3)C(=S)N2Cc2ccco2)c1 (stereo not given)
A: > 44.1 µM

Q: Give the reported EC50 for this compound. "CCc1nc2nc(C)cc(Nc3ccc(I)cc3)n2n1"
A: > 39.5 µM
